The following compounds are shown together with reported TGI values.
System: A498 renal
Test: NCI tumour cell line growth inhibition, 48 h

Example entries begin here.
CCCCCCCCCCCCCCCCCCNc1ccn(C2OC(COP(=O)(O)OCC3OC(n4cc(C)c(=O)[nH]c4=O)CC3F)C(O)C2O)c(=O)n1 (stereo not drawn) = > 60.2 µM
CCOC(=O)c1ccc2c(c1)Cc1cc([N+](=O)[O-])ccc1-2 = > 100 µM

# context switch: different compound, same TGI
Task: Look up and report measured TGI (A498 renal) for the following compound: N#CC(N)c1ccc(OCCCCCCCCCCOc2ccc(C(N)C#N)cc2)cc1 (stereo not drawn)
Output: > 100 µM

* * *

The following compounds are shown together with reported TGI values.
System: UACC-62 melanoma
Experiment: NCI tumour cell line growth inhibition, 48 h

Cn1c2ccccc2n2c3ncccc3c(=NCCCC(=O)O)c(C#N)c12 = > 100 µM
COC(=O)C1=Cc2cc(OC)c(OC)c(OC)c2[C@H](c2cc(OC)c(OC)c(OC)c2)C1C(=O)OC (some centres undefined) = > 100 µM

# context switch: different compound, same TGI
Task: Give the measured TGI for O=C(CC(CC(=O)Oc1c(Br)cc(Br)cc1C(=O)O)C(=O)Oc1c(Br)cc(Br)cc1C(=O)O)Oc1c(Br)cc(Br)cc1C(=O)O
Output: > 100 µM

* * *

System: SK-MEL-28 melanoma
Experiment: NCI tumour cell line growth inhibition, 48 h
assay.metric: TGI

Example entries begin here.
O=c1cc(-c2ccccc2)oc2ccc(OC/C(=N/O)c3ccccc3)cc12 = > 50 µM
COC(=O)CCC(C)[C@H]1CCC2C3C(C[C@H](OC(C)=O)[C@@]21C)[C@@]1(C)CCC2(C[C@H]1C[C@H]3OC(C)=O)OOC1(CCCC1)OO2 (stereo not given in full) = > 100 µM

Task: Give the measured TGI for CC(=O)OC1CC2CCN3C(=O)c4cc5c(cc4[C@H](C1OC(C)=O)C23)OCO5 (stereo not given in full)
Output: > 100 µM

Task: Give the measured TGI for COc1cc(=O)c2c(O)c3c(O)oc(C)cc3c(OC)c2c1
Output: 60 µM

Task: Give the measured TGI for COc1ccc(CC2C3=C(CCN2C(=O)C2CCC2)CC2(CC3)OCCO2)cc1O (stereo not given)
Output: > 100 µM

* * *

Tested on: SW-620 colon
Assay: NCI tumour cell line growth inhibition, 48 h
The following molecules are shown together with reported TGI values.

Example entries begin here.
Cc1c(C)c(C)c(CC2(C)CSC2)c(CC2(C)CSC2)c1C = > 100 µM
O=C(c1ccco1)c1nc2cc(C(F)(F)F)ccc2nc1C(F)(F)F = > 100 µM

# context switch: different molecule, same TGI
Task: Give the measured TGI for COc1ccc(OC(C)=O)c2c1CCC=CC2=O
Output: 28.8 µM

* * *

Tested on: MDA-MB-435
Test: NCI tumour cell line growth inhibition, 48 h
The following molecules are shown together with reported TGI values.

CSc1ccc(-c2ccccc(=O)c2O)cc1 = > 100 µM

Task: Give the measured TGI for FC(F)(F)c1ccc(Cc2nc3cc4ccccc4cc3[nH]2)cc1
Output: > 100 µM

Task: Give the measured TGI for CC(C)(C)c1cc(-c2cc(C(C)(C)C)[nH]n2)n[nH]1
Output: > 100 µM

Task: Give the measured TGI for CCOC(=O)CCC(NC(=O)Cc1ccc(Nc2nc3ccccc3nc2-c2cccs2)cc1)C(=O)OCC (configuration not stated)
Output: > 100 µM

* * *

Tested on: MCF7 breast
Assay: NCI tumour cell line growth inhibition, 48 h
assay.metric: TGI

Nc1ccc2nc3c(nc2c1)C(=O)c1ccccc1-3 = > 100 µM
COc1ccc(OC)c(CSc2ccc(OC)c(OC)c2)c1 = > 100 µM
NC(CSCc1ccc(I)cc1)C(=O)O (centres undefined) = > 100 µM

# context switch: different compound, same TGI
Task: Give the measured TGI for Nc1c(C(=O)c2ccc(-c3cccnc3)cc2)cnn1-c1ccc(F)cc1
Output: > 25 µM

* * *

System: MCF7 breast
Assay: NCI tumour cell line growth inhibition, 48 h
The following compounds are shown together with reported TGI values.

Cc1c(C)c(C)c(CC2(C)CSC2)c(CC2(C)CSC2)c1C = > 100 µM
CC(=O)N1N=C(c2ccc3ccccc3c2O)CC1c1cccs1 (centres undefined) = > 100 µM
COc1cc(/C=C2\C[C@H]3[C@@H]4CC=C5C[C@@H](O)CC[C@]5(C)[C@H]4CC[C@]3(C)[C@H]2O)ccc1OCCN1CCCC1 = > 50 µM
CC(=O)N(C)c1ccc(N=CN(C)C)cc1 = > 100 µM
CC(C)N1CC2CN(Cc3ccccc3)CC(C1)C2=O = > 100 µM
COc1ccc(CC2C3=C(CCN2C(=O)C2CCC2)CC2(CC3)OCCO2)cc1O (centres undefined) = > 100 µM
CC(=O)Nc1ccc(NS(=O)(=O)c2ccc3nc(C)n(NS(=O)(=O)c4ccc(NC(C)=O)cc4)c(=O)c3c2)cc1 = > 100 µM
COC(=O)c1c(C)cccc1C1CN=NC12Cc1ccccc1C2=O (centres undefined) = > 43.8 µM
CC[C@@H]1ON(C)[C@H]2CN(C)C(=O)[C@@H]12 = > 100 µM
N#CC(N)c1ccc(OCCCCCCCCCCOc2ccc(C(N)C#N)cc2)cc1 (centres undefined) = > 100 µM

Task: Give the measured TGI for OCc1cc2c(ccc3sc4ccc5sc6ccc7ncccc7c6c5c4c32)s1
Output: 42.2 µM

* * *

System: NCI-H460 lung
Assay: NCI tumour cell line growth inhibition, 48 h
assay.metric: TGI

Example entries begin here.
CC(=O)Nc1ccc(/C=c2\sc3nnc(CCC(=O)Nc4ccccc4Cl)n3c2=O)cc1 = > 10 µM
Cc1ccc(/C=N/n2c(Cc3ccccc3)n[nH]c2=O)cc1 = > 100 µM
COC(=O)C(=O)C(C(=O)C(=O)Nc1cccc(C(C)=O)c1)c1nc2ccc([N+](=O)[O-])cc2[nH]c1=O (stereo not drawn) = > 100 µM
CC[C@@H]1ON(C)[C@H]2CN(C)C(=O)[C@@H]12 = > 100 µM

# context switch: different molecule, same TGI
Task: Give the measured TGI for Cc1cc(O)c2c(c1O)C(=O)c1cccc(O)c1C2=O
Output: > 100 µM

* * *

Test system: ACHN renal
Test: NCI tumour cell line growth inhibition, 48 h
The following compounds are shown together with reported TGI values.

Example entries begin here.
O=C1c2[nH]cc(CNC3CN4CCC3CC4)c2C(=O)c2c1c(O)c1ccccc1c2O (configuration not stated) = 8.04 µM
O=C(O)CSC(CC1(c2ccc(Cl)cc2)NC(=O)CS1)c1ccc(Cl)cc1 (configuration not stated) = > 100 µM
COc1c(O)c(OC)c2oc(-c3ccc(O)c(O)c3)c(OC)c(=O)c2c1O = > 100 µM
COc1cc2nc(Nc3cccc(Br)c3)nc(Nc3cccc(Br)c3)c2cc1OC = 29.4 µM
Cc1cc([N+](=O)[O-])ccc1NC(=O)C(=O)C(C(=O)c1ccccc1-c1ccccc1)C1OC(=O)c2ccccc21 (configuration not stated) = > 100 µM

Task: Give the measured TGI for COc1cccc2ccc(C(=O)c3ccccc3)nc12
Output: > 100 µM

Task: Give the measured TGI for CC1(C)N=C(N)N=C(N)N1c1ccc(CCCCc2ccccc2)c(Cl)c1
Output: 22.1 µM

Task: Give the measured TGI for C=CCNC(=S)N=Nc1c(O)n(CN2CCOCC2)c2ccc([N+](=O)[O-])cc12
Output: > 100 µM

Task: Give the measured TGI for COc1ccc(CC2C3=C(CCN2C(=O)C2CCC2)CC2(CC3)OCCO2)cc1O (configuration not stated)
Output: > 100 µM

Task: Give the measured TGI for NC(=O)C(=O)c1ncn(Cc2ccccc2)c1N
Output: > 100 µM

Task: Give the measured TGI for O=c1[nH]nc(Cc2ccc(Cl)cc2)n1/N=C/c1ccco1
Output: > 100 µM

Task: Give the measured TGI for CCCC(=O)NC(Nc1cc(C)ccn1)(C(=O)OCC)C(F)(F)F (configuration not stated)
Output: > 100 µM

* * *

Test system: OVCAR-4 ovarian
Experiment: NCI tumour cell line growth inhibition, 48 h
The following molecules are shown together with reported TGI values.

Example entries begin here.
CSC1=Nc2c(c(C)c(-c3ccccc3)n2CCCN2CCCCC2)C2=NC(=O)C[C@H](C)N12 = 37.7 µM
FC(F)(F)c1ccc(Cc2nc3cc4ccccc4cc3[nH]2)cc1 = > 100 µM
Cc1ccc(S(=O)(=O)N2CCN(S(=O)(=O)c3ccc(C)cc3)CCN(S(=O)(=O)c3ccc(C)cc3)Cc3cc(C#N)c(C#N)cc3CN(S(=O)(=O)c3ccc(C)cc3)CC2)cc1 = > 100 µM
CC(C)(C)N1CCC1CN (stereo not given) = > 100 µM

# context switch: different molecule, same TGI
Task: Give the measured TGI for Nc1ccccc1NC(=O)c1ccc(CNc2nccc(-c3cccnc3)n2)cc1
Output: > 28.3 µM
